The measurements presented in this section are drawn from ChEMBL document CHEMBL6134887.

experiment: Metabolic stability in mouse liver assessed as intrinsic clearance at 1 uM measured up to 60 mins by LC-MS/MS analysis; assay type: ADME, tissue-based; conditions: read-out: CLH
# key: entry, value: CLint scaled at 1 µM

Consider the following illustrative entries.
| Molecule | CLint scaled at 1 µM |
| --- | --- |
| O=C(O)Cc1ccccc1Nc1c(Cl)cccc1Cl [DICLOFENAC] | 16.3 L/h/kg |
| C=C[C@]1(C)C[C@@H](OC(=O)Cn2cc(-c3ccc(Nc4ncnc5[nH]cnc45)cc3)nn2)[C@]2(C)[C@H](C)CC[C@]3(CCC(=O)[C@H]32)[C@@H](C)[C@@H]1O | 187 L/h/kg |
| C=C[C@]1(C)C[C@@H](OC(=O)CS[C@@H]2C[C@H]3CC[C@@H](C2)N3C)[C@]2(C)[C@H](C)CC[C@]3(CCC(=O)[C@H]32)[C@@H](C)[C@@H]1O [RETAPAMULIN] | 123 L/h/kg |

Ask: Query (molecule): C=C[C@]1(C)C[C@@H](OC(=O)Cn2cc(-c3cncc(C(O)c4ccc5c(N)ncnn45)c3)nn2)[C@]2(C)[C@H](C)CC[C@]3(CCC(=O)[C@H]32)[C@@H](C)[C@@H]1O (stereo partly specified) ; field requested: CLint scaled at 1 µM
Reply: 131 L/h/kg

====

experiment: Metabolic stability in mouse liver microsomes assessed as half-life at 1 uM measured up to 60 mins by LC-MS/MS analysis; type: ADME, Microsome
Recorded metric: half-life at 1 µM

Consider the following illustrative entries.
| Substance smiles | Recorded metric | Obs value |
| --- | --- | --- |
| C=C[C@]1(C)C[C@@H](OC(=O)Cn2cc(-c3ccc(Cn4cnc5c(N)ncnc54)cc3)nn2)[C@]2(C)[C@H](C)CC[C@]3(CCC(=O)[C@H]32)[C@@H](C)[C@@H]1O | half-life at 1 µM | < 30 s |
| C=C[C@]1(C)C[C@@H](OC(=O)Cn2cc(-c3ccc(C(=O)c4ccc5c(N)ncnn45)cn3)nn2)[C@]2(C)[C@H](C)CC[C@]3(CCC(=O)[C@H]32)[C@@H](C)[C@@H]1O | half-life at 1 µM | 32.4 s |
| C=C[C@]1(C)C[C@@H](OC(=O)Cn2cc(-c3ccc(Cn4cnc5c(N)ncnc54)c(O)c3)nn2)[C@]2(C)[C@H](C)CC[C@]3(CCC(=O)[C@H]32)[C@@H](C)[C@@H]1O | half-life at 1 µM | 33.6 s |
| C=C[C@]1(C)C[C@@H](OC(=O)Cn2cc(-c3ccc(Cn4ccc5c(N)ncnc54)c(OC)c3)nn2)[C@]2(C)[C@H](C)CC[C@]3(CCC(=O)[C@H]32)[C@@H](C)[C@@H]1O | half-life at 1 µM | 40.8 s |

Ask: Query (compound): "C=C[C@]1(C)C[C@@H](OC(=O)Cn2cc(-c3cccc(Nc4ncnc5[nH]cnc45)c3)nn2)[C@]2(C)[C@H](C)CC[C@]3(CCC(=O)[C@H]32)[C@@H](C)[C@@H]1O" ; field requested: half-life at 1 µM
Reply: 40.2 s

====

assay: Metabolic stability in mouse liver microsomes assessed as half-life at 1 uM measured up to 60 mins by LC-MS/MS analysis; assay type: ADME, Microsome
Recorded metric: half-life at 1 µM (s)
# unit: s | format: bare number

Consider the following illustrative entries.
| Compound | Obs value |
| --- | --- |
| C=C[C@]1(C)C[C@@H](OC(=O)Cn2cc(-c3ccc(Cn4ccc5c(N)ncnc54)nc3)nn2)[C@]2(C)[C@H](C)CC[C@]3(CCC(=O)[C@H]32)[C@@H](C)[C@@H]1O | 34.8 |
| C=C[C@]1(C)C[C@@H](OC(=O)CSC(C)(C)CNC(=O)[C@H](N)C(C)C)[C@]2(C)[C@H](C)CC[C@]3(CCC(=O)[C@H]32)[C@@H](C)[C@@H]1O [VALNEMULIN] | 46.8 |
| C=C[C@]1(C)C[C@@H](OC(=O)Cn2cc(-c3ccc(Cn4cnc5c(N)ncnc54)nc3)nn2)[C@]2(C)[C@H](C)CC[C@]3(CCC(=O)[C@H]32)[C@@H](C)[C@@H]1O | 34.8 |
| C=C[C@]1(C)C[C@@H](OC(=O)Cn2cc(-c3cncc(NC(=O)c4ccc(OC)nc4)c3)nn2)[C@]2(C)[C@H](C)CC[C@]3(CCC(=O)[C@H]32)[C@@H](C)[C@@H]1O | 34.2 |

Now, please, on to the next compound.
Ask: Query (compound): C=C[C@]1(C)C[C@@H](OC(=O)Cn2cc(-c3ccc(C(O)c4ccc5c(N)ncnn45)cn3)nn2)[C@]2(C)[C@H](C)CC[C@]3(CCC(=O)[C@H]32)[C@@H](C)[C@@H]1O (stereo not given in full) ; field requested: half-life at 1 µM
Reply: 39.6

====

# key: entry, value: CLint scaled at 1 µM
experiment: Metabolic stability in human liver assessed as intrinsic clearance at 1 uM measured up to 30 mins by LC-MS/MS analysis; type: ADME, tissue-based; conditions: read-out: CLH
A bare number is not enough; add the unit after it.

| Molecule | Obs value |
| --- | --- |
| C=C[C@]1(C)C[C@@H](OC(=O)Cn2cc(-c3cccc(C(=O)Nc4ncnc5[nH]cnc45)c3)nn2)[C@]2(C)[C@H](C)CC[C@]3(CCC(=O)[C@H]32)[C@@H](C)[C@@H]1O | 140 L/h/kg |
| C=C[C@]1(C)C[C@@H](OC(=O)Cn2cc(-c3ccc(Cn4ccc5c(N)ncnc54)c(OC)c3)nn2)[C@]2(C)[C@H](C)CC[C@]3(CCC(=O)[C@H]32)[C@@H](C)[C@@H]1O | 310 L/h/kg |
| C=C[C@]1(C)C[C@@H](OC(=O)Cn2cc(-c3cccc(Nc4cc(N)ncn4)c3)nn2)[C@]2(C)[C@H](C)CC[C@]3(CCC(=O)[C@H]32)[C@@H](C)[C@@H]1O | 94.9 L/h/kg |

Now, please, on to the next molecule.
Ask: Query (molecule): C=C[C@]1(C)C[C@@H](OC(=O)Cn2cc(-c3ccc(C(O)c4ccc5c(N)ncnn45)nc3)nn2)[C@]2(C)[C@H](C)CC[C@]3(CCC(=O)[C@H]32)[C@@H](C)[C@@H]1O (some centres undefined) ; field requested: CLint scaled at 1 µM
Reply: 284 L/h/kg

====

# key: entry, value: MIC
tested on: Streptococcus pneumoniae; assay: Antibacterial activity against Streptococcus pneumoniae assessed as inhibition of bacterial growth incubated for 20 to 24 hrs by microbroth serial dilution method; assay type: functional; settings: time 20-24 hrs, read-out: MIC100
A bare number is not enough; add the unit after it.

Consider the following illustrative entries.
| Substance smiles | MIC |
| --- | --- |
| C=C[C@]1(C)C[C@@H](OC(=O)Cn2cc(-c3cccc(NC(=O)c4ccc(OC)cc4)c3)nn2)[C@]2(C)[C@H](C)CC[C@]3(CCC(=O)[C@H]32)[C@@H](C)[C@@H]1O | 0.25 µg/mL |
| C=C[C@]1(C)C[C@@H](OC(=O)CSC(C)(C)CNC(=O)[C@H](N)C(C)C)[C@]2(C)[C@H](C)CC[C@]3(CCC(=O)[C@H]32)[C@@H](C)[C@@H]1O | 0.06 µg/mL |

Now, please, on to the next compound.
Ask: Query (compound): "C=C[C@]1(C)C[C@@H](OC(=O)Cn2cc(-c3cncc(C(=O)Nc4ccc(OC)nc4)c3)nn2)[C@]2(C)[C@H](C)CC[C@]3(CCC(=O)[C@H]32)[C@@H](C)[C@@H]1O" ; field requested: MIC
Reply: 0.5 µg/mL

====

tested on: Enterococcus faecium; assay: Antibacterial activity against vancomycin, ampicillin and ciprofloxacin resistant Enterococcus faecium clinical isolate 5 assessed as inhibition of bacterial growth incubated for 20 to 24 hrs by microbroth serial dilution method; assay type: functional; conditions: time 20-24 hrs, read-out: MIC100
Sorting guide: entries reporting MIC beneath 0.1 µg/mL go in the true (1) pile, the rest go in the false (0) pile.

Example entries begin here.
| Substance smiles | Label class |
| --- | --- |
| C=C[C@]1(C)C[C@@H](OC(=O)Cn2cc(-c3cncc(C(=O)Nc4ccc(OC)nc4)c3)nn2)[C@]2(C)[C@H](C)CC[C@]3(CCC(=O)[C@H]32)[C@@H](C)[C@@H]1O | false (0) |
| C=C[C@]1(C)C[C@@H](OC(=O)CS[C@@H]2C[C@H]3CC[C@@H](C2)N3C)[C@]2(C)[C@H](C)CC[C@]3(CCC(=O)[C@H]32)[C@@H](C)[C@@H]1O | true (1) |
| C=C[C@]1(C)C[C@@H](OC(=O)Cn2cc(-c3cccc(Nc4cc(N)ncn4)c3)nn2)[C@]2(C)[C@H](C)CC[C@]3(CCC(=O)[C@H]32)[C@@H](C)[C@@H]1O | false (0) |

Ask: Here's an entry: "C=C[C@]1(C)C[C@@H](OC(=O)Cn2cc(-c3cncc(C(=O)Nc4ccc(N)nc4)c3)nn2)[C@]2(C)[C@H](C)CC[C@]3(CCC(=O)[C@H]32)[C@@H](C)[C@@H]1O" . Is its MIC below 0.1 µg/mL?
Reply: false (0)

Ask: Continue with "C=C[C@]1(C)C[C@@H](OC(=O)Cn2cc(-c3cncc(NC(=O)c4cnc(OC)cn4)c3)nn2)[C@]2(C)[C@H](C)CC[C@]3(CCC(=O)[C@H]32)[C@@H](C)[C@@H]1O"
Reply: true (1)

Ask: Continue with "C=C[C@]1(C)C[C@@H](OC(=O)Cn2cc(-c3cccc(Nc4ncnc5[nH]cnc45)c3)nn2)[C@]2(C)[C@H](C)CC[C@]3(CCC(=O)[C@H]32)[C@@H](C)[C@@H]1O"
Reply: false (0)
